# test-method-notes: qHTS assay to identify small molecule antagonists of the sonic hedgehog signaling (Shh) pathway (AID 1259369); also: nearly all actives have a fitted effect of over 45% in size
# measurement-conditions: NIH/3T3 Gli1-Luc reporter, Shh antagonist, luminescence 24 h; series mostly up to 92.4 µM
Inconclusive results are not listed. Active and inactive are the calls of the source. Calls follow the shape of the full dose curve.
measure: outcome

Please review the following examples before continuing.
smi	outcome
Cc1c([N+](=O)[O-])cc2c(c1[N+](=O)[O-])C(C)(C)CC2(C)C	inactive
COc1ccc2c(c1OC)C(=O)O[C@@H]2[C@H]1c2cc3c(cc2CCN1C)OCO3	inactive
CSC(=O)c1c(C(F)F)nc(C(F)(F)F)c(C(=O)SC)c1CC(C)C	inactive
O=S(=O)(O)F	inactive
COC(=O)/C=C(\C)OP(=O)(OC)OC	inactive

The record that follows has no outcome shown yet.
Query COc1ccc2[nH]cc(CCN(C(C)C)C(C)C)c2c1 yields outcome of inactive
